TEST DESCRIPTION: In vivo mouse oral single dose PK
RUN CONDITIONS: plasma, po
PARAMETER MEASURED: half-life (h)
Numbers only, in h.

Worked examples follow.
COMPOUND: C[C@@H]1Cc2c([nH]c3ccccc23)[C@@H](c2c(F)cc(OCCN3CC(CF)C3)cc2F)N1CC(C)(C)F [compound 30]
MEASUREMENT UNIT: h
half-life: 11
//
COMPOUND: CCCN1CC(Oc2ccc([C@@H]3c4[nH]c5ccccc5c4C[C@@H](C)N3CC(C)(C)F)cc2)C1 [compound 21]
MEASUREMENT UNIT: h
half-life: 18
//
COMPOUND: C[C@@H]1Cc2c([nH]c3ccccc23)[C@@H](c2ccc(OCCN3CC(CF)C3)cc2)N1CC(C)(C)F [compound 23]
MEASUREMENT UNIT: h
half-life: 7

--- query ---
What value of measured half-life is listed for CCCN1CC(Oc2cc(F)c([C@@H]3c4[nH]c5ccccc5c4C[C@@H](C)N3CC(C)(C)F)c(F)c2)C1 [compound 32] ?
15

These entries and their values trace back to paper PMC12163657.
